Biological target: T1, (mRBM10-ZF N4D)x2 (Mus musculus, UniProt Q99KG3-2 135-166+=GSGSG+135-166, V161M;internal_change)
T1 sequence: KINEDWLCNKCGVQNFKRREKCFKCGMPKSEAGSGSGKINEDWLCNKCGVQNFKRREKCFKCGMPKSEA
Experiment: BLI; ITC: 50 mM Tris pH 7.5, 150 mM NaCl, 1 mM DTT, 0.1 mM ZnCl2, 25 °C; BLI: 50 mM Tris pH 7.5, 150 mM NaCl, 1 mM DTT, 0.1% BSA, 0.02% Tween, 30 °C
Settings: protein: recombinant; tags: GST cleaved (HRV-3C); label: 5' biotin
testReadout: Kd
Remember to put the unit after the number in your answer.

// lookup Kd for AAAGGGGGGAAA (ssRNA) [(GGG)x2 biotin] 400 nM
